B1: tRNA (parent)
chain: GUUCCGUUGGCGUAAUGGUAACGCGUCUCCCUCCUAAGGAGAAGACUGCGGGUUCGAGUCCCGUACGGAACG

variants of: B1; experiment: yeast fitness, log relative to wild type (ln ratio); higher = fitter; tRNA-Arg(CCU), competitive growth, 37 C, 1 M NaCl
# yeast fitness (ln) >= -0.2 gives T, anything below gives F

Here are 5 variants together with their reported answers.
>  <Variant Designation>
U2G G6U C27U A43C C66A C71U

>  <Class Name>
F

$$$$
>  <Variant Designation>
U2C G6A C27U A43C C46U C66U A69G A70G

>  <Class Name>
T

$$$$
>  <Variant Designation>
G1A A43C C46U C66U A69G A70G

>  <Class Name>
F

$$$$
>  <Variant Designation>
G1A U2C G6U C46U C66U A69G A70G C71U

>  <Class Name>
T

$$$$
>  <Variant Designation>
U2G G6U C66U A70G C71U

>  <Class Name>
T

$$$$

Next item in the queue.
Please tell me: is the variant U2C G6U C27U C46U C66A A69G A70U C71U at or over -0.2 in terms of yeast fitness (ln)?
F

Reference source for all entries: the RNAGym collection of RNA variant scans (doi:10.1038/s41586-018-0170-7)
